tested on: diaphorase (Clostridium kluyveri); assay: C. kluyveri diaphorase inhibition, resazurin coupling – biochemical, fluorescence intensity, 10 µM NADPH, counter-screen for P. falciparum G6PD inhibitor project, confirmation (AID 504862); conditions: diaphorase-coupled resazurin reduction, NADPH 10 uM, at 20 µM;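 also: resorufin red fluorescence formed as diaphorase reduces resazurin using NADPH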
The list shows a part of the results. Activity calls are given as the source filed them.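 The calls were made as follows: active = average inhibition reaching 50% or more with the compound at 20 µM; inactive = the rest.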
The reply should be one of these categories: active, inactive

Examples with answers:
[[record]]
molecule = "O=C1C=CC(=O)N1c1ccc(N2CCCCC2)cc1"
subject_of_test = "diaphorase (Clostridium kluyveri)"
category_label = "inactive"

[[record]]
molecule = "COc1c(O)ccc2c1CN1CCc3cc4c(cc3C1C2)OCO4 (stereo unspecified)"
subject_of_test = "diaphorase (Clostridium kluyveri)"
category_label = "inactive"

[[record]]
molecule = "COc1ccc(OCc2nnc3n2N=C(c2ccccc2)C(CC(=O)O)S3)cc1 (stereo unspecified)"
subject_of_test = "diaphorase (Clostridium kluyveri)"
category_label = "inactive"


Short answer needed: outcome of this test for `CCOC(=O)C1=C(c2ccc(OC)cc2)C(=O)c2ccccc2C1=O` ?
active

Kindly provide the recorded test outcome for the following molecule: O=C(Nc1nc(-c2ccncc2)cs1)C1COc2ccccc2O1 (stereo unspecified)
inactive

For `O=C(Nc1nnc(S(=O)(=O)N2CCCCCC2)s1)c1cccc(Br)c1` , what call appears in the results of this test?
active

State the result this test recorded for `COc1cccc(C(=O)Nc2nnc(S(=O)(=O)N(C)c3ccccc3)s2)c1` .
active

Outcome? `O=C(CN1CCN(c2ccc(O)cc2)CC1)Nc1cc(S(=O)(=O)N2CCOCC2)ccc1Cl`
inactive

What classification did `Cc1ccnc(-n2sc3ccccc3c2=O)n1` end up with in this test?
inactive

Which outcome was entered for the molecule `CCN(CC)c1ccc2oc(=O)c(C)nc2c1` in this test?
active

Which outcome was assigned to `O=C1/C(=C\c2ccc([N+](=O)[O-])cc2)CS(=O)(=O)C/C1=C/c1ccc([N+](=O)[O-])cc1` in this test?
inactive

Reference source: PubChem BioAssay AID504862
